assay: Systemic clearance and brain distribution in WT and 3 × Tg-AD mice (8 months); format: in vivo, mouse; details: 3×Tg-AD (B6;129-Psen1tm1Mpm Tg(APPSwe,tauP301L)1Lfa/Mmjax), mouse, brain interstitial fluid (unbound) versus plasma (unbound), iv, 1 mg/kg, AD mice 8 months, 1 mg/kg i.v.; read-out: K puu,brain
Known Kp of a selection of compounds
I'd appreciate a reply containing only the number, no unit.

COCCOCCn1c2ccccc2c2cc(/C=C/c3cc[n+](CCO)c4ccccc34)ccc21 :: 8.1

QUERY: # input compound: "COCCOCCn1c2ccccc2c2cc(/C=C/c3cc[n+](C)c4ccccc34)ccc21.[I-]" ; wanted: its Kp
RESULT: 11
